# TARGET_OR_SYSTEM: UniProt Q96P20
# TEST_NAME: Measurement of IL-1β production (NLRP3 hIL1β EC50), PMA-differentiated THP-1 cells
# TEST_SETTINGS: human IL-1β production; assayed using one or more of the described procedures
pEC50: −log10 of the molar value.
ASSAY_READOUT: pEC50

[[record]]
smiles_text = "Nc1nc2cc(-c3cc[nH]n3)ccc2c2[nH]c(C[C@H]3CCCN3C(=O)C3(C(F)(F)F)CC3)nc12"
assay_readout = "pEC50"
recorded_value = 5.40

[[record]]
smiles_text = "CCCC(=O)N1CCC[C@@H]1Cc1nc2c(N)nc3cc(-c4cc[nH]n4)ccc3c2[nH]1"
assay_readout = "pEC50"
recorded_value = 5.24

[[record]]
smiles_text = "CC(C)(C)OC(=O)N1CCC(c2nc3c(N)nc4cc(-c5cc[nH]n5)ccc4c3[nH]2)CC1"
assay_readout = "pEC50"
recorded_value = 5.31

[[record]]
smiles_text = "CCn1c([C@H]2CCCN(C(C)=O)C2)nc2c(N)nc3cc(-c4cc[nH]n4)ccc3c21"
assay_readout = "pEC50"
recorded_value = 6.11

[[record]]
smiles_text = "Nc1nc2cc(-c3cc[nH]n3)ccc2c2[nH]c([C@@H]3CCCN(C(=O)C4CCC4)C3)nc12"
assay_readout = "pEC50"
recorded_value = 5.72


a: N#CC1(C(=O)N2CCC[C@@H](c3nc4c(N)nc5cc(-c6cc[nH]n6)ccc5c4[nH]3)C2)CCCC1
b: N#CC1(C(=O)N2CCC[C@H](c3nc4c(N)nc5cc(-c6cc[nH]n6)ccc5c4[nH]3)C2)CCCCC1
c: CC(=O)N1CCC[C@H](c2nc3c(N)nc4cc(-c5cc[nH]n5)ccc4c3n2C(C)C)C1
d: CCCC(=O)N1CCC[C@H](c2nc3c(N)nc4cc(-c5cc[nH]n5)ccc4c3n2CC)C1
e: Nc1nc2cc(-c3cc[nH]n3)ccc2c2[nH]c([C@H]3CCN(C(=O)CC(F)(F)F)C3)nc12
Task field, ranking: reported pEC50, descending order. List the labels in the requested order.
d, c, b, a, e

1: Nc1nc2cc(-c3cc[nH]n3)ccc2c2[nH]c(C[C@@H]3CCCN3C(=O)C3(C(F)(F)F)CC3)nc12
2: Nc1nc2cc(-c3cc[nH]n3)ccc2c2[nH]c([C@H]3CCN(C(=O)c4ccccc4)C3)nc12
I would appreciate it if you could say which entry, 1 or 2 , has the lower pEC50 value. To answer, give the label that identifies your chosen option.
2

1: CC(C)C(=O)N1CCC[C@@H](c2nc3c(N)nc4cc(-c5cc[nH]n5)ccc4c3[nH]2)C1
2: Nc1nc2cc(-c3cc[nH]n3)ccc2c2[nH]c(C[C@@H]3CCCN3C(=O)C3CCC3)nc12
Of 1 and 2 , whose reported pEC50 is the larger number? Response format: the label of the selected entry.
2

====

# TARGET_OR_SYSTEM: NLRP3 (Homo sapiens)
# Sequence (Q96P20 whole entry): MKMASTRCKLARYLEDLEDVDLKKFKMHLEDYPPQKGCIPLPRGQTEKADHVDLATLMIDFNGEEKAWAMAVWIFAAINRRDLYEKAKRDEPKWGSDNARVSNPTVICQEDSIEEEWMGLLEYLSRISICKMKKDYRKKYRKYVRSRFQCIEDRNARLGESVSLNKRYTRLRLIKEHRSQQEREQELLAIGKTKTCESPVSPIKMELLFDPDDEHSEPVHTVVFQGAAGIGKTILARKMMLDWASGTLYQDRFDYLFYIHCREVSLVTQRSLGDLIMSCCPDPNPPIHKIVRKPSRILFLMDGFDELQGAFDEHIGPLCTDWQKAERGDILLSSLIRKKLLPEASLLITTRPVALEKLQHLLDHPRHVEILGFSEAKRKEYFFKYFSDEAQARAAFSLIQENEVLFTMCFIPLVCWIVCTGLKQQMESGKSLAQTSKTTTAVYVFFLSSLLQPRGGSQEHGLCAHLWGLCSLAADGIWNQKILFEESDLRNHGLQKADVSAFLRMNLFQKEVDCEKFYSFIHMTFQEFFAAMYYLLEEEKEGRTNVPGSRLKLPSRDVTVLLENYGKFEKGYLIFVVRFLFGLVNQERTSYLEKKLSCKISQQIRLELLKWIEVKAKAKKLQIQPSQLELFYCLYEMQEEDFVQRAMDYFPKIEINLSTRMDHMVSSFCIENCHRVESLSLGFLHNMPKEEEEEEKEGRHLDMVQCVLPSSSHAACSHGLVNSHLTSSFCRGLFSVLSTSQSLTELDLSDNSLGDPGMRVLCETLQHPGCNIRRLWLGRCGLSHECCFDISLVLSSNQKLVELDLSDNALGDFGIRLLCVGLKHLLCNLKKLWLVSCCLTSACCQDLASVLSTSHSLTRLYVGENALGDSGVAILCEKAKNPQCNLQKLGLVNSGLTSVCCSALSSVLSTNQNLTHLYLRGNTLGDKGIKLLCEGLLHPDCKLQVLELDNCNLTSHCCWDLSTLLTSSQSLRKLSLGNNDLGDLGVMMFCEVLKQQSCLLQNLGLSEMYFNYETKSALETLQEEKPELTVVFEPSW
# TEST_NAME: Measurement of IL-1β production (NLRP3 hIL1β EC50), PMA-differentiated THP-1 cells
# TEST_SETTINGS: human IL-1β production; assayed using one or more of the described procedures
ASSAY_READOUT: EC50 (nM)

[[record]]
compound = "Nc1nc2cc(-c3cc[nH]n3)ccc2c2[nH]c([C@@H]3CCCN(C(=O)C4(C(F)(F)F)CC4)C3)nc12"
target_or_system = "NLRP3 (Homo sapiens)"
recorded_value = 2300

[[record]]
compound = "Nc1nc2cc(-c3cc[nH]n3)ccc2c2[nH]c([C@H]3CCCNC3)nc12"
target_or_system = "NLRP3 (Homo sapiens)"
recorded_value = 510

[[record]]
compound = "CC(C)C(=O)N1CCC[C@H]1Cc1nc2c(N)nc3cc(-c4cc[nH]n4)ccc3c2[nH]1"
target_or_system = "NLRP3 (Homo sapiens)"
recorded_value = 6400


1: Nc1nc2cc(-c3cc[nH]n3)ccc2c2[nH]c([C@@H]3CCCNC3)nc12
2: CC(C)n1c([C@H]2CCCN(C(=O)C3CCC3)C2)nc2c(N)nc3cc(-c4cc[nH]n4)ccc3c21
3: CC(C)(C)C(=O)N1CCC[C@H](c2nc3c(N)nc4cc(-c5cc[nH]n5)ccc4c3[nH]2)C1
4: Nc1nc2cc(-c3cc[nH]n3)ccc2c2[nH]c([C@H]3CCCN(C(=O)Cc4ccccc4)C3)nc12
List items by EC50 in falling order. Output spec: labels arranged per the requested ranking.
4, 1, 3, 2

P: COCC(=O)N1CCC[C@H](c2nc3c(N)nc4cc(-c5cc[nH]n5)ccc4c3[nH]2)C1
Q: N#CC1(C(=O)N2CCC[C@H]2Cc2nc3c(N)nc4cc(-c5cc[nH]n5)ccc4c3[nH]2)CCCC1
R: CC(C)(C)OC(=O)N1CCC[C@H]1Cc1nc2c(N)nc3cc(-c4cc[nH]n4)ccc3c2[nH]1
Order the items by recorded EC50; the first position goes to the largest value. Reply with the item labels sorted in the order that was asked for.
Q, R, P

I: Nc1nc2cc(-c3cc[nH]n3)ccc2c2[nH]c(C[C@H]3CCCN3C(=O)c3ccccn3)nc12
II: COCCC(=O)N1CCC[C@H](c2nc3c(N)nc4cc(-c5cc[nH]n5)ccc4c3n2C(C)C)C1
III: CCn1c([C@H]2CCCN(C(=O)c3ccccc3)C2)nc2c(N)nc3cc(-c4cc[nH]n4)ccc3c21
IV: Nc1nc2cc(-c3cc[nH]n3)ccc2c2[nH]c(C[C@@H]3CCCN3C(=O)C3CC3(F)F)nc12 (some centres unmarked)
Kindly order the items shown according to EC50, from the highest value down. Please express your ranking as an ordered list of the labels.
I, IV, II, III
(I: 5900 nM, IV: 4100 nM, II: 970 nM, III: 180 nM)
